tested on: isolated rat brain synaptosomes; experiment: 6-OHDA-induced neurotoxicity model: GSH level; type: cell-based; details: 50 µM in combination with 6-OHDA (150 µM), compared to the toxic agent

compound	result unit	preservation of GSH level
CCOC(=O)c1cc(-c2ccc(Br)cc2)n(CC(=O)NN=Cc2ccc(Cl)cc2)c1C [7b]	%	60
CCOC(=O)c1cc(-c2ccc(Br)cc2)n(CCC(=O)NN=Cc2ccc(Cl)cc2)c1C [8b]	%	50
CCOC(=O)c1cc(-c2ccc(Br)cc2)n(CC(=O)NN=Cc2ccc([N+](=O)[O-])cc2)c1C [7c]	%	50
CCOC(=O)c1cc(-c2ccc(Br)cc2)n(CCC(=O)NN=Cc2cc(OC)c(O)c(OC)c2)c1C [8d]	%	70
CCOC(=O)c1cc(-c2ccc(Br)cc2)n(CC(=O)NN=Cc2cc(OC)c(O)c(OC)c2)c1C [7d]	%	70
CCOC(=O)c1cc(-c2ccc(Br)cc2)n(CC(=O)NN=Cc2ccc(N(C)C)cc2)c1C [7a]	%	50
CCOC(=O)c1cc(-c2ccc(Br)cc2)n(CC(=O)NN=Cc2ccc(OC)cc2OC)c1C [7e]	%	40
CCOC(=O)c1cc(-c2ccc(Br)cc2)n(CCC(=O)NN=Cc2ccc(OC)cc2OC)c1C [8e]	%	50
CCOC(=O)c1cc(-c2ccc(Br)cc2)n(CCC(=O)NN=Cc2ccc([N+](=O)[O-])cc2)c1C [8c]	%	50
CCOC(=O)c1cc(-c2ccc(Br)cc2)n(CCC(=O)NN=Cc2ccc(N(C)C)cc2)c1C [8a]	%	40

====

settings: pH 7.4, 50 µM, 4 h, 25 °C; Pe calculated in 10^−6 cm/s, presented as −logPe
assay readout: PAMPA BBB −logPe

molecule	assay readout	recorded measurement
CCOC(=O)c1cc(-c2ccc(Br)cc2)n(CC(=O)NN=Cc2ccc([N+](=O)[O-])cc2)c1C [7c]	PAMPA BBB −logPe	4.601
CCOC(=O)c1cc(-c2ccc(Br)cc2)n(CCC(=O)NN=Cc2ccc([N+](=O)[O-])cc2)c1C [8c]	PAMPA BBB −logPe	4.631
CCOC(=O)c1cc(-c2ccc(Br)cc2)n(CC(=O)NN=Cc2ccc(OC)cc2OC)c1C [7e]	PAMPA BBB −logPe	4.814
CCOC(=O)c1cc(-c2ccc(Br)cc2)n(CC(=O)NN=Cc2ccc(N(C)C)cc2)c1C [7a]	PAMPA BBB −logPe	4.849
CC(C)NCC(O)COc1cccc2ccccc12.Cl (stereo not drawn) [Propranolol HCl, reference compound]	PAMPA BBB −logPe	4.389
CCOC(=O)c1cc(-c2ccc(Br)cc2)n(CCC(=O)NN=Cc2ccc(Cl)cc2)c1C [8b]	PAMPA BBB −logPe	4.444

====

Listed here are compounds together with their documented IC50.
biological target: human recombinant MAOB enzyme (hMAOB) (Homo sapiens); test: Human recombinant MAOB enzyme activity (fluorometric, Amplex Red); assay type: biochemical; conditions: read-out: IC50 (EC50), (µM ± SD) hMAOB;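 note: tyramine as substrate, H2O2 formation detected by horseradish peroxidase coupled Amplex Red fluorescence read at 570 and 690 nm, compounds incubated with enzyme 30 min at 37 °C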
Sequence (P27338 whole entry): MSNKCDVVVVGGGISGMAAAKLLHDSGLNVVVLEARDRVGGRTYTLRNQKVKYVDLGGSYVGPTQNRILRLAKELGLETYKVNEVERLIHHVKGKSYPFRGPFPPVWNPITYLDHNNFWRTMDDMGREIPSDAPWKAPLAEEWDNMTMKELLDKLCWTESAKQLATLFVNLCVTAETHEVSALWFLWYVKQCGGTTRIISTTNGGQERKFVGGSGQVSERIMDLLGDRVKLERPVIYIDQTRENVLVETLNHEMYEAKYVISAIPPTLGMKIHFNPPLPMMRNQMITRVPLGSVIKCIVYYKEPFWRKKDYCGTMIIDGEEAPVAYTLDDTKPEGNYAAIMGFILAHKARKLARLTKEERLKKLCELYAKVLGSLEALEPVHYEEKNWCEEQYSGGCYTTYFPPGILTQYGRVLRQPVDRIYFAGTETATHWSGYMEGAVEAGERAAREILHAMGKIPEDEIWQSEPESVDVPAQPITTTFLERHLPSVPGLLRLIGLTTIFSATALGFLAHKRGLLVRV

smiles text	IC50
CCOC(=O)c1cc(-c2ccc(Br)cc2)n(CC(=O)NN=Cc2cc(OC)c(O)c(OC)c2)c1C	0.491 µM
CCOC(=O)c1cc(-c2ccc(Br)cc2)n(CC(=O)NN=Cc2ccc(Cl)cc2)c1C	0.551 µM
CCOC(=O)c1cc(-c2ccc(Br)cc2)n(CCC(=O)NN=Cc2ccc(Cl)cc2)c1C	0.815 µM
CCOC(=O)c1cc(-c2ccc(Br)cc2)n(CCC(=O)NN=Cc2ccc(N(C)C)cc2)c1C	0.821 µM
CCOC(=O)c1cc(-c2ccc(Br)cc2)n(CC(=O)NN=Cc2ccc([N+](=O)[O-])cc2)c1C	0.815 µM
CCOC(=O)c1cc(-c2ccc(Br)cc2)n(CCC(=O)NN=Cc2ccc([N+](=O)[O-])cc2)c1C	0.814 µM
CCOC(=O)c1cc(-c2ccc(Br)cc2)n(CCC(=O)NN=Cc2cc(OC)c(O)c(OC)c2)c1C	0.49 µM
CCOC(=O)c1cc(-c2ccc(Br)cc2)n(CC(=O)NN=Cc2ccc(N(C)C)cc2)c1C	0.812 µM
CCOC(=O)c1cc(-c2ccc(Br)cc2)n(CC(=O)NN=Cc2ccc(OC)cc2OC)c1C	0.81 µM
CCOC(=O)c1cc(-c2ccc(Br)cc2)n(CCC(=O)NN=Cc2ccc(OC)cc2OC)c1C	0.817 µM
